The values you see were collected from the supplement of paper PMC7125110.

B1: glmS ribozyme (parent)
chain: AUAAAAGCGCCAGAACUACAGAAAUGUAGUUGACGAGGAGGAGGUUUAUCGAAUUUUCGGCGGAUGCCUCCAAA

Variants of: B1
PROTOCOL TEXT: self-cleavage kobs at 160 uM GlcN6P; higher = faster cleavage; RNA array
RECORDED CONDITIONS: with glucosamine-6-phosphate
Fewer inactive variants are shown than the library holds.
REPORTED ENDPOINT: self-cleavage kobs at 160 uM GlcN6P

Some variants with known self-cleavage kobs at 160 uM GlcN6P results, for comparison:
VARIANT IDENTIFIER: C16G A48C
self-cleavage kobs at 160 uM GlcN6P: < 1e-05 s⁻¹

VARIANT IDENTIFIER: U45A C70G
self-cleavage kobs at 160 uM GlcN6P: 0.000105 s⁻¹

VARIANT IDENTIFIER: G9U C61A
self-cleavage kobs at 160 uM GlcN6P: 0.00013 s⁻¹

VARIANT IDENTIFIER: C10A C11G A12C G13U
self-cleavage kobs at 160 uM GlcN6P: < 1e-05 s⁻¹

VARIANT IDENTIFIER: G7A U30G
self-cleavage kobs at 160 uM GlcN6P: < 1e-05 s⁻¹

Now take the following variant into account.
[in] What does the record list as self-cleavage kobs at 160 uM GlcN6P for G35U G41U ?
[out] < 1e-05 s⁻¹
